Data provenance is ChEMBL document CHEMBL1201862.

Tested on: NCI-H23
assay_notes: NCI tumour cell line growth inhibition, 48 h
Activity calls are given as the source filed them. No stated cut-off is given here; in the data, active = GI50 up to about 1.1 µM and inactive = higher.
Choose the fitting class; nothing outside active, inactive is accepted.

CCSC1=C(C)N(/C=N/C(C)(C)C)CC1 ... inactive

Record request — test call for `O=C(/N=N/c1cccc(Cl)c1)NNc1cccc(Cl)c1`
inactive

Record request — test call for `O=C(Cn1nnc(-c2ccccc2)n1)N/N=C/c1cn(Cc2ccc(Cl)cc2Cl)c2ccccc12`
inactive

Record request — test call for `CC(C)(C)n1c(=O)n2n(c1=O)Cc1cccc3cccc(c13)C2`
inactive

Record request — test call for `Nc1nc(SCC(=O)c2ccccc2)c2[nH]cnc2n1`
inactive

Record request — test call for `N#Cc1ncn(-c2ccccc2)c1N`
inactive

Record request — test call for `COC(=O)N/N=C(\Cc1ccccc1)CN(C)C`
inactive

Record request — test call for O=C(O)C1C2C=CC(O2)C1C(=O)Nc1ncccn1 (centres undefined)
inactive
